Tested on: IGROV1 ovarian
Assay: NCI tumour cell line growth inhibition, 48 h
property: TGI (µM)
Report the figure in µM without appending any unit label.

Recorded results for 2 compounds are shown here.
> print(dat)
                                   compound     studysystem  unitsymbol  observedvalue
1  CC(=O)O[C@H]1[C@@H](OC2CCCC2(c2ccccc2)c2ccccc2)O[N+]([O-])=C[C@@]12COCc1cc3c(cc12)OCO3 (stereo not given in full)  IGROV1 ovarian          µM           22.2
2  CCC[CH2][Sn]1([CH2]CCC)[O]C(=O)c2cccc(OC)c2[O]1  IGROV1 ovarian          µM           2.15

Kindly review the next compound as well.
TGI in this record for Oc1ccc2ccccc2c1C(c1ccc(Cl)cc1)c1c(O)ccc2ccccc12 : 7.65
